- System: SK-MEL-2 melanoma
- test.name: NCI tumour cell line growth inhibition, 48 h
The reader will find reported TGI values listed item by item below.

Worked examples follow.
{"compound": "CCOC(=O)C12CCSC1C1(C#N)C(C#N)=CC2(N=P(c2ccccc2)(c2ccccc2)c2ccccc2)n2c(=O)n(-c3ccccc3)c(=O)n21 (centres undefined)", "TGI": "> 100 µM"}
{"compound": "COc1cc(C(C#N)NNC(=O)Cc2ccccc2)cc(OC)c1OC (centres undefined)", "TGI": "> 100 µM"}
{"compound": "O=Nc1ccc(O)c2ncccc12", "TGI": "6.39 µM"}
{"compound": "CC(C)(C)C1(c2ccc(C3(c4ccccc4)Oc4ccccc4S3)[nH]2)Oc2ccccc2S1 (centres undefined)", "TGI": "> 100 µM"}

Quick one: TGI for `Cc1cc(Cl)ccc1NC(=O)C(=O)Cc1ccc([N+](=O)[O-])c([N+](=O)[O-])c1CC(=O)C(=O)Nc1ccc(Cl)cc1C` ?
> 100 µM

Quick one: TGI for `O=S(=O)(O)c1cc(N=Nc2cc(S(=O)(=O)O)c3ccccc3c2O)ccc1/C=C/c1ccc(N=Nc2cc(S(=O)(=O)O)c3ccccc3c2O)cc1S(=O)(=O)O` ?
> 620 µM

###

- Test system: SF-295 CNS
- test.name: NCI tumour cell line growth inhibition, 48 h; in the data active = GI50 below about 0.43 µM; inactive = the rest
Response enum: TRUE (active), FALSE (inactive)

Consider the worked cases shown below.
{"compound.structure": "Cc1cc(Nc2cc(CN3CCOCC3)c3nc(C)c(Cc4ccc(Cl)cc4F)n3n2)n[nH]1", "answer.label": "FALSE"}
{"compound.structure": "COc1cc(-c2cc(-c3nc4cc(Cl)c(Cl)cc4[nH]3)[nH]n2)cc(OC)c1OC", "answer.label": "FALSE"}
{"compound.structure": "COc1ccc(S(=O)(=O)NC2=NCCN2C(=S)SN2CCn3c2nsc3=S)cc1OC", "answer.label": "FALSE"}
{"compound.structure": "C=C(C)[C@@H]1CC[C@]2(C(=O)Nc3ccccn3)CC[C@]3(C)[C@H](CC[C@@H]4[C@@]5(C)CCCNC(C)(C)[C@@H]5CC[C@]43C)[C@@H]12", "answer.label": "FALSE"}
{"compound.structure": "COc1ccc2[nH]c(-c3ccccc3)c(C=C(C#N)C#N)c2c1", "answer.label": "FALSE"}

Can you look up the reported call for `COc1cc(-c2nc3ccccc3[nH]2)ccc1OCC(=O)N=Nc1c(O)[nH]c2ccc(Cl)cc12` for me?
FALSE

Can you look up the reported call for `COc1ccccc1-c1ccc2nc(NC(=O)Nc3cc(C(F)(F)F)cc(C(F)(F)F)c3)sc2c1` for me?
FALSE

Can you look up the reported call for `COc1cccc2c1nc1cccc(OC)c1[n+]2[O-]` for me?
FALSE

Can you look up the reported call for `COc1cc(C(C)(C)C)cc(OC)c1C(O)(c1c(OC)cc(C(C)(C)C)cc1OC)c1c(OC)cc(C(C)(C)C)cc1OC` for me?
TRUE

###

The reader will find reported TGI values listed item by item below.
- System: SNB-78 CNS
- test.name: NCI tumour cell line growth inhibition, 48 h

Worked examples follow.
{"compound": "O=C(O)c1c([N+](=O)[O-])cc(C(F)(F)F)cc1[N+](=O)[O-]", "target.of.assay": "SNB-78 CNS", "assay.result": "> 100 µM"}
{"compound": "COc1ccc([C@@H]2CC(=O)NCCCNCCCCNCCCN2)cc1", "target.of.assay": "SNB-78 CNS", "assay.result": "> 100 µM"}

Fill in the recorded TGI for this compound, with SNB-78 CNS as test system: `C/C1=N\NC(=O)c2ccccc2C(=O)N/N=C(\C)c2cccc1n2.O=[N+]([O-])[O-].[Zn+2]`
> 100 µM

Fill in the recorded TGI for this compound, with SNB-78 CNS as test system: `O=[N+]([O-])c1cc2c(cc1O)[nH]c1cccc([N+](=O)[O-])c12`
> 100 µM

###

- System: DMS 114 small cell lung
- test.name: NCI tumour cell line growth inhibition, 48 h
quantity.measured: TGI

{"compound": "COc1ccc(OC)c(/C=C/C(=O)C(C)(C)C)c1", "assay.result": "32.1 µM"}
{"compound": "C=C(C)C1CC2=C(O1)C(=O)c1ccccc1C2=O (configuration not stated)", "assay.result": "32.9 µM"}
{"compound": "Fc1ccc2c(c1)SC1Oc3ccccc3-c3c1c-2nn3-c1ccccc1 (configuration not stated)", "assay.result": "> 100 µM"}
{"compound": "Cc1cc2c(=O)cc(-c3ccc(C(F)(F)F)cc3)oc2c(C(=O)O)c1C", "assay.result": "> 100 µM"}
{"compound": "Cc1ccc(/C=C/C(=O)C(C)C)cc1", "assay.result": "> 100 µM"}
{"compound": "O=C(c1ccco1)c1ccccc1C(=O)c1ccco1", "assay.result": "> 100 µM"}
{"compound": "[C-]#[O+].[C-]#[O+].[Ir].[O-]c1ccc2ccccc2c1N=Nc1ccccc1", "assay.result": "8.68 µM"}
{"compound": "c1ccc(CCCC2Sc3cccc4cccc(c34)S2)cc1", "assay.result": "> 100 µM"}
{"compound": "CC(C)[C@H]1CO[C@@H]2O[C@H](C)CC(=O)N21", "assay.result": "> 100 µM"}
{"compound": "Cc1nc2nn(Cc3ccccc3)cc2c(=O)o1", "assay.result": "> 100 µM"}

Quick one: TGI for COc1cc(C(C#N)NNC(=O)Cc2ccccc2)cc(OC)c1OC (configuration not stated) ?
> 100 µM

Quick one: TGI for CN/C=C(/c1ccc(OC)cc1)C(O)c1ccc(OC)c(OC)c1 (configuration not stated) ?
> 100 µM

###

- System: HL-60(TB) leukemia
- test.name: NCI tumour cell line growth inhibition, 48 h
The reader will find reported TGI values listed item by item below.

Worked examples follow.
{"molecule": "CCOC(=O)CCSS(=O)(=O)C(F)(F)F", "TGI": "> 100 µM"}
{"molecule": "Clc1nc(Cl)c2ncn(C/C=C/Cn3cnc4c(Cl)nc(Cl)nc43)c2n1", "TGI": "> 100 µM"}
{"molecule": "O=C1c2ccccc2C(=O)c2c(NC(=O)C(Cl)CCl)cccc21 (configuration not stated)", "TGI": "2.68 µM"}
{"molecule": "CN(C)CCn1c(=O)oc2cc(C(=O)CN3CCOCC3)ccc21", "TGI": "> 100 µM"}
{"molecule": "COc1ccc2c(c1)CC[C@@H]1[C@@H]2CC[C@]2(C)c3[nH]ncc3C[C@@H]12", "TGI": "9.84 µM"}
{"molecule": "CSC1=C(C#N)C(=O)N(c2ccc(Cl)cc2)C(=O)C1C#N (configuration not stated)", "TGI": "> 100 µM"}

# context switch: different molecule, same TGI
Fill in the recorded TGI for this molecule, with HL-60(TB) leukemia as test system: `O=C(N[C@@H]1C=CCC[C@@H]1c1ccccc1)OCc1ccccc1`
34.6 µM

###

- Tested on: NCI-H522 lung
- test.name: NCI tumour cell line growth inhibition, 48 h
The reader will find reported TGI values listed item by item below.

Worked examples follow.
{"molecule": "CN(CCCCN1CCCC1)CCCCN(C)C(=O)Cc1ccc(Cl)c(Cl)c1", "TGI": "27.7 µM"}
{"molecule": "COc1cc(OC)cc(-c2ccc(-c3ccc(C(=N)N)s3)s2)c1", "TGI": "3.55 µM"}
{"molecule": "N#CC(c1ccccc1)N(CCc1ccccc1)C(=O)c1ccccc1 (stereo unspecified)", "TGI": "> 100 µM"}

Quick one: TGI for `CN1CCC(C(=O)NNc2ccccc2)CC1` ?
> 100 µM

Quick one: TGI for NC(=S)N/N=C1\C(=O)N(CCc2ccccc2)C(=O)C1C(=O)NCCc1ccccc1 (stereo unspecified) ?
> 100 µM

Quick one: TGI for `Cc1nc2c(=O)n(C)c(=O)nc-2n(CCO)c1C` ?
> 100 µM

###

- Tested on: NCI-H226 lung
- test.name: NCI tumour cell line growth inhibition, 48 h
Where a SMILES comes first, the peptide text is derived from it. The star is where a group is joined. Boc = CC(C)(C)OC(=O)*
quantity.measured: TGI (µM)
Write the number in µM without appending the unit.

Worked examples follow.
{"compound": "CCOC(=O)c1c(C)noc1/N=N/N(CCO)CCO", "target.of.assay": "NCI-H226 lung", "TGI (µM)": 63.5}
{"compound": "Cc1cc(O)c(C2=NN(c3ccc(S(N)(=O)=O)cc3)C(c3ccccc3O)C2)cc1Cl (configuration not stated)", "target.of.assay": "NCI-H226 lung", "TGI (µM)": 6.05}
{"compound": "CN(C)C(=S)/N=c1\\ssc(=S)n1-c1ccccc1", "target.of.assay": "NCI-H226 lung", "TGI (µM)": 26.9}
{"compound": "Clc1nc(Cl)c2ncn(C/C=C/Cn3cnc4c(Cl)nc(Cl)nc43)c2n1", "target.of.assay": "NCI-H226 lung", "TGI (µM)": 42.9}
{"compound": "C=C1C(=O)OC2/C=C(\\C)C(=O)CC3OC(C)(C)OC3(C)CC(OC(=O)/C(C)=C/C)C12 (configuration not stated)", "target.of.assay": "NCI-H226 lung", "TGI (µM)": 63.6}
{"compound": "COc1cccc2c1C(=O)c1c(O)c3c(c(O)c1C2=O)C[C@@](O)(C(=O)CO)C[C@@H]3OC1CC(OC(C)=O)C(OC(C)=O)C(C)O1 (some centres not stated)", "target.of.assay": "NCI-H226 lung", "TGI (µM)": 1.16}
{"compound": "Fc1c[c-]c(-c2ccccn2)c(F)c1.[CH3-].[Pt+2].c1ccc([PH+](c2ccccc2)c2ccccn2)cc1", "target.of.assay": "NCI-H226 lung", "TGI (µM)": 3.8}
{"compound": "CCNc1nc(N)c(C(=O)c2cccs2)s1", "target.of.assay": "NCI-H226 lung", "TGI (µM)": 76}

Quick one: TGI for COc1ccc2c(c1)CCC(CN1CCN(CCOC(c3ccc(F)cc3)c3ccc(F)cc3)CC1)C2O (configuration not stated) ?
39.8

Quick one: TGI for `O=S(=O)(O)c1cc(N=Nc2cc(S(=O)(=O)O)c3ccccc3c2O)ccc1/C=C/c1ccc(N=Nc2cc(S(=O)(=O)O)c3ccccc3c2O)cc1S(=O)(=O)O` ?
594

Quick one: TGI for COC(=O)C(Cc1c[nH]c2ccccc12)NC(=O)C(Cc1c[nH]c2ccccc12)NC(=O)C(Cc1c[nH]c2ccccc12)NC(=O)OC(C)(C)C (stereo not drawn) (Boc-Trp-Trp-Trp-OMe; configuration not given here) ?
37.1

Quick one: TGI for CCN1CCC2(CC1)NC(=O)c1c(c3ccc(Cl)c(Cl)c3n1C)C2C#N (configuration not stated) ?
23.7

Quick one: TGI for `OC(Cc1ccccc1)(Cc1ccccc1)c1ccccc1` ?
34.2

Source: PubChem BioAssay (NCI)
